- Assay protocol: Pharmacokinetic parameters in rats
- Type: in vivo
- Condition summary: rat, in vivo, 5 mg/kg oral

| Structure smiles string | bioavailability, % |
| --- | --- |
| COc1ccc(N2CCOCC2)c2sc(NC(=O)N3CCC(C)(O)CC3)nc12 | 77 |

---

- Assay protocol: Pharmacokinetic parameters in dogs
- Assay type: in vivo
- Condition summary: dog, in vivo, 5 mg/kg oral
- Text: The pharmacokinetic parameters have been evaluated in both rats and dogs.

| Structure smiles string | Unit string | bioavailability |
| --- | --- | --- |
| COc1ccc(N2CCOCC2)c2sc(NC(=O)N3CCC(C)(O)CC3)nc12 | % | 88 |

From: patent US7368446B2
